Target: T1, VLP2 (virus-like particles of AAV2) (AAV2, UniProt P03135 1-735; P03135 1-598; P03135 1-533)
T1 construct: Empty AAV2 capsid; background says about 60 protein molecules, VP1:VP2:VP3 = 1:1:10; Immobilised on the ELISA plate
T1 sequence (P03135 whole entry, chain 1 of 3): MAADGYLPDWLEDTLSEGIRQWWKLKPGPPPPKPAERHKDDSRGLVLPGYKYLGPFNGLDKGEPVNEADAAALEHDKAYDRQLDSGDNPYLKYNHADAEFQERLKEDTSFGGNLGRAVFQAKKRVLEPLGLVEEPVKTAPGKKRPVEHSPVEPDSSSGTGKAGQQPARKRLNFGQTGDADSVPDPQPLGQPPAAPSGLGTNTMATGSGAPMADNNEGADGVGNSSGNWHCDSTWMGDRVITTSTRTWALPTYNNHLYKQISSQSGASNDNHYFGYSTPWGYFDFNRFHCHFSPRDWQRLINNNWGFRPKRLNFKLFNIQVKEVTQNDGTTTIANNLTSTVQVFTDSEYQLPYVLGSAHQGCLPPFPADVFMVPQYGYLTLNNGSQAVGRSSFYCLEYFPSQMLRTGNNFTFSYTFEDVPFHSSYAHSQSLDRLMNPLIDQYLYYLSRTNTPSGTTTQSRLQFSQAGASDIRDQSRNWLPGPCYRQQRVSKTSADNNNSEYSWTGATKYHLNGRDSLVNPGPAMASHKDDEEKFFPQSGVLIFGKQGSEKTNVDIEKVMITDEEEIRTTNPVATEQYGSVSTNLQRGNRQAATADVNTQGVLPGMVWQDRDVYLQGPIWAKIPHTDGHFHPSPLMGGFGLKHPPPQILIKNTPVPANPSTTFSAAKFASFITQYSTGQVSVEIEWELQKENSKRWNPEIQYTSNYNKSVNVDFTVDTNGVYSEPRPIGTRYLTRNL
T1 sequence (P03135 139-735, tags left off, chain 2 of 3): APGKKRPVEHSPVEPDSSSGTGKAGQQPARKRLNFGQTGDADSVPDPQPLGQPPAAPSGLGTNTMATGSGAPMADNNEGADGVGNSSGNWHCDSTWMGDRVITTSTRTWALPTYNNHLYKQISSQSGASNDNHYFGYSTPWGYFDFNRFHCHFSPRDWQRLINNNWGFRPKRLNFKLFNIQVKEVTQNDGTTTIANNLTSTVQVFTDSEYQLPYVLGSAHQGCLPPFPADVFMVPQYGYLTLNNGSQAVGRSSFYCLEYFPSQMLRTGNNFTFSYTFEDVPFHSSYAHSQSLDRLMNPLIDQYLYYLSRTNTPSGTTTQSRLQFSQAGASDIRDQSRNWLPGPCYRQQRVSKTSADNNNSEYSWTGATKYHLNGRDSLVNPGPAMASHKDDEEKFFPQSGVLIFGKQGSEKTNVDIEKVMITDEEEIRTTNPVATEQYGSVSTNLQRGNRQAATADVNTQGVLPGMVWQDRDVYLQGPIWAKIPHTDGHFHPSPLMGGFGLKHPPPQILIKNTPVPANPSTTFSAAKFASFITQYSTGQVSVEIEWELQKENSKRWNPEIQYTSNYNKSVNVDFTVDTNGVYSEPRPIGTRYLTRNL
T1 sequence (P03135 203-735, chain 3 of 3): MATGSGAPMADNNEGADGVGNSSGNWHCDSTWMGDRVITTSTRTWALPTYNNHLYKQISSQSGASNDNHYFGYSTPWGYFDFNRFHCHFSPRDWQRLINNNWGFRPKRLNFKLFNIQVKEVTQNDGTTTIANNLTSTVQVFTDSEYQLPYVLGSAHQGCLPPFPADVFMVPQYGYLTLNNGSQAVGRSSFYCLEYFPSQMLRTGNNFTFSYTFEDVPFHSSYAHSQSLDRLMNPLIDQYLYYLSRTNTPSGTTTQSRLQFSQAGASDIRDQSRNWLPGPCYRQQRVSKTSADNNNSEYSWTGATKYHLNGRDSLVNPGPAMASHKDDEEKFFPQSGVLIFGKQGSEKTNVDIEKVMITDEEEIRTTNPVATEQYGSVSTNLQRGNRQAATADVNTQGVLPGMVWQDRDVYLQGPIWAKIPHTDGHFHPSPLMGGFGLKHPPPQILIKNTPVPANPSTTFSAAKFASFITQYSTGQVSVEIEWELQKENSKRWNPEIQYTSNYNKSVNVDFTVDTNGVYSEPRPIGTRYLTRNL
Assay: ELISA on VLP2; binding after pH 10.0 41.2°C 15 min / untreated
metric name: Residual activity [%] (%)
Report the figure in % without appending any unit label.

Prompt line: For the binder shown here, AAV-binding protein No. 144 (AVR8g + Val383Ala, Gln415Arg) (receptor) MGSAGESDQITLPKNEVQLNAYVLQEPPKGETCTYDWQLITHPRDYSGEMEGEHSQILKLSNLTPGLYEFKVIAEGQNAHSEGYVNVTVEPEPRKNRPPIAIVSPRFQEISLPTTSTVIDGSQSTDDDKIVQYHWEELKGPLREEKISEDTAILKLSKLVPGNYTFRLTVVDSDGATDSTTANLTVNKAVDHHHHHH , give the reported Residual activity [%].
Response line: 65.7
